Origin of values: paper PMC8388771

Test system: Cryptococcus neoformans var. grubii ATCC 208821
ASSAY SUMMARY: CO-ADD MIC assay, C. neoformans var. grubii ATCC 208821
Format: cell-based
MEASUREMENT SETUP: Cryptococcus neoformans, ATCC208821, Table S1
REPORTED PROPERTY: MIC (µg/mL)
Write it as a number; the unit µg/mL goes unstated.

Known MIC results, listed for orientation:
CC(C)CCc1cnnn1-c1ccccc1OCC(=O)N[C@H](CCCCN)C(=O)N[C@H](CCCNC(=N)N)Cn1cc(Cc2ccccc2)nn1.Cl.Cl    16
CC(C)CCc1cn(-c2c(OCC(=O)N[C@H](CCCNC(=N)N)Cn3cc(CC4CCCCC4)nn3)ccc3ccccc23)nn1.Cl    32

Challenge: Quote MIC with test system Cryptococcus neoformans var. grubii ATCC 208821 for CC(C)CCc1cnnn1-c1ccccc1OCC(=O)N[C@H](CCCNC(=N)N)Cn1cc(C2CCCCC2)nn1
Response given: 32

Challenge: Quote MIC with test system Cryptococcus neoformans var. grubii ATCC 208821 for CC(C)CCc1cn(-c2ccccc2OCC(=O)N[C@H](CCCNC(=N)N)Cn2cc(Cc3ccccc3)nn2)nn1.Cl
Response given: 32

###

Tested on: S. pneumoniae ATCC 49619
ASSAY SUMMARY: Primary MIC assay, S. pneumoniae ATCC 49619
Type: cell-based, Streptococcus pneumoniae
MEASUREMENT SETUP: Streptococcus pneumoniae, ATCC49619; Table 1; read-out: MIC S. pneumoniae ATCC 49619
Parameter MIC: see the listing below.
Write it as a number; the unit µg/mL goes unstated.

Known MIC results, listed for orientation:
CC(C)CCc1cn(-c2c(OCC(=O)N[C@H](CCCCN)C(=O)N[C@H](CCCNC(=N)N)Cn3cc(CC4CCCCC4)nn3)ccc3ccccc23)nn1 [Compound 41]    16
CC(C)CCc1cn(-c2c(OCC(=O)N[C@H](CCCCN)C(=O)N[C@H](CCCNC(=N)N)Cn3cc(Cc4ccccc4)nn3)ccc3ccccc23)nn1.Cl.Cl [Compound 42]    8
CC(C)CCc1cn(-c2ccccc2OCC(=O)N[C@H](CCCNC(=N)N)Cn2cc(Cc3ccccc3)nn2)nn1.Cl [Compound 13]    16
CC(C)CCc1cnnn1-c1c(OCC(=O)N[C@H](CCCNC(=N)N)Cn2cc(Cc3ccccc3)nn2)ccc2ccccc12.Cl [Compound 26]    4

Switching to the query record.
Challenge: Return value of MIC for input CC(C)CCc1cnnn1-c1ccccc1OCC(=O)N[C@H](CCCNC(=N)N)Cn1cc(CC2CCCCC2)nn1.Cl [Compound 15] , no commentary.
Response given: 16

###

In what follows, each item is paired with its MIC for Cryptococcus neoformans var. grubii ATCC 208821.
Write it as a number; the unit µg/mL goes unstated.

Known MIC results, listed for orientation:
CC(C)CCc1cnnn1-c1ccccc1OCC(=O)N[C@H](CCCCN)C(=O)N[C@H](CCCNC(=N)N)Cn1cc(CC2CCCCC2)nn1    16
CC(C)CCc1cnnn1-c1ccccc1OCC(=O)N[C@H](CCCNC(=N)N)Cn1cc(CC2CCCCC2)nn1.Cl    32

Challenge: Return value of MIC for input OC(Cn1cncn1)(Cn1cncn1)c1ccc(F)cc1F [flucona-zole, fluconazole, reference compound] , no commentary.
Response given: 0.25

Challenge: Return value of MIC for input CC(C)CCc1cn(-c2ccccc2OCC(=O)N[C@H](CCCNC(=N)N)Cn2cc(-c3ccc(F)cc3)nn2)nn1.Cl , no commentary.
Response given: 32
